# Test system: mu opiate receptor (MOR)
# protocol.description: MOR agonist activity using [35S]GTPγS binding assay in striatal membranes
# Type: biochemical
# condition.parameters: Series B; 1 μM compound + β-FNA, relative to DAMGO + BFNA

molecule	tgt	% DAMGO + BFNA, %
COc1cccc(OC)c1C(=O)CC1c2c(cc3c(c2OC)OCO3)CC[N+]1(C)C (stereo not shown) [Compound B0023]	mu opiate receptor (MOR)	81.8
COc1ccccc1CC(=O)CC1c2c(cc3c(c2OC)OCO3)CC[N+]1(C)C (stereo not shown) [Compound 5009]	mu opiate receptor (MOR)	181.5
COc1c2c(cc3c1C(CC(=O)Cc1ccccc1F)[N+](C)(C)CC3)OCO2 (stereo not shown) [Compound B0055]	mu opiate receptor (MOR)	446.8
COc1ccccc1CC(O)CC1c2c(cc3c(c2OC)OCO3)CCN1C (stereo not shown) [Compound B0030]	mu opiate receptor (MOR)	172.9

These data points were gathered from patent US10363239B2.
